- assay.overview: Phase 1 oral bioavailability study of Rigosertib soft gelatin capsule in MDS patients, fasted and fed, vs IV
- Type: in vivo, human
- setup.conditions: human, plasma, po, 560 mg, 560 mg Oral (Fed), MDS patients
measured.endpoint: Tmax (h)
Unit h implied. Number only.

Exercise: I have this compound here, "COc1cc(OC)c(/C=C/S(=O)(=O)Cc2ccc(OC)c(NCC(=O)[O-])c2)c(OC)c1.[Na+]" , and I need its recorded Tmax.
Solution: 2.82

====

- assay.overview: Phase 1 oral bioavailability study of Rigosertib soft gelatin capsule in MDS patients, fasted and fed, vs IV
- Assay type: in vivo, human
- setup.conditions: human, plasma, po, 560 mg, 560 mg Oral (Fasting), MDS patients
measured.endpoint: half-life (h)
Unit h implied. Number only.

Exercise: I have this molecule here, "COc1cc(OC)c(/C=C/S(=O)(=O)Cc2ccc(OC)c(NCC(=O)[O-])c2)c(OC)c1.[Na+]" , and I need its recorded half-life.
Solution: 2.79
